Tested on: PA-1 (Ovarian Carcinoma);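 also: after 72 h of two-drug dosing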
Assay: Bliss excess, mean over the matrix (fraction); higher = more synergy
Kindly supply the reported Bliss excess values for the records listed here.
Provide a numeric answer; units are not to be included.

-- ask Can you share its Bliss excess? I mean this molecule: CN(C)CCCOc1ccc(-c2ccc3ncc4c(c3c2)n(C2CCOCC2)c(=O)n4C)cn1 [AZD0156] + CCN(CCO)CCCOc1ccc2c(Nc3cc(CC(=O)Nc4cccc(F)c4)[nH]n3)ncnc2c1 [AZD2811] (first compound max 1 µM, 7x7, partner max 1 µM)
-- reply 0.038

-- ask Can you share its Bliss excess? I mean this molecule: NC1(C(=O)N[C@@H](CCO)c2ccc(Cl)cc2)CCN(c2ncnc3[nH]ccc23)CC1 [Capivasertib] + CC(C)n1c(=O)n(C)c2cnc3cc(F)c(-c4ccc(OCCCN5CCCCC5)nc4)cc3c21 [AZD1390] (first compound max 10 µM, 7x7, partner max 0.3 µM)
-- reply -0.102

-- ask Can you share its Bliss excess? I mean this molecule: C[C@@H]1COCCN1c1cc(C2([S@](C)(=N)=O)CC2)nc(-c2ccnc3[nH]ccc23)n1 [AZD6738] + O=C(c1cc(Cc2n[nH]c(=O)c3ccccc23)ccc1F)N1CCN(C(=O)C2CC2)CC1 [Olaparib] (first compound max 10 µM, 7x7, partner max 10 µM)
-- reply 0.0046

-- ask Can you share its Bliss excess? I mean this molecule: COc1cc2ncnc(Nc3ccc(F)c(Cl)c3)c2cc1OCCCN1CCOCC1 [Gefitinib] + CC(C)n1c(=O)n(C)c2cnc3cc(F)c(-c4ccc(OCCCN5CCCCC5)nc4)cc3c21 [AZD1390] (first compound max 10 µM, 7x7, partner max 0.3 µM)
-- reply -0.0949
